- tested.system: RORγ (UniProt P51449)
- protocol: RORγ Gal4 Reporter Gene Assay in 293T cells (firefly and renilla luciferase)
- Assay type: cell-based, human
- condition.info: third value of the cell; Gal4 reporter gene assay in 293T cells, renilla normalised luciferase
Overview of recorded pIC50 (REN) for various compounds
readout: pIC50 (REN)

* Cc1c(C(=O)NC2CCC(C)(C(=O)O)CC2)cc(-c2ccc(S(=O)(=O)NC(C)(C)C)c(C(F)(F)F)c2)n1CC1CCCCC1 (stereo not drawn) | 7.2
* Cc1c(C(=O)NC2COC2)cc(-c2cc(C(=O)NC(C)C)cc(C(C)(C)C)c2)n1CC1CCCCC1 | 7.4
* Cc1c(C(=O)NCC2COC2)cc(-c2ccc(S(=O)(=O)NC(C)(C)C)c(C(C)(C)C)c2)n1CC1CCCCC1 | 7.0
* Cc1c(C(=O)NC2COC2)cc(-c2cc(C(C)(C)C)cc(C(C)(C)C)c2)n1CC1CC2CCC1C2 (stereo not drawn) | 7.0
